# ASSAY: Single-dose pharmacokinetics of VB-201 in plasma (Example 1)
# Assay type: in vivo, human
# CONDITIONS: single oral dose 1 mg
READOUT_LABEL: Ke (h⁻¹)
Please reply with the bare figure in h⁻¹ and do not write the unit itself.

Which Ke is reported for this compound? CCCCCCCCCCCCCCCCOCC(COP(=O)([O-])OCC[N+](C)(C)C)OCCCCC(=O)O (stereo not shown)
0.0165

Data origin: patent US20130172294A1
